Here, each record is paired with measured pKd data.
Molecular target: T1, PUF4 RNA-binding domain (Saccharomyces cerevisiae, UniProt P25339 537-888)
T1 sequence: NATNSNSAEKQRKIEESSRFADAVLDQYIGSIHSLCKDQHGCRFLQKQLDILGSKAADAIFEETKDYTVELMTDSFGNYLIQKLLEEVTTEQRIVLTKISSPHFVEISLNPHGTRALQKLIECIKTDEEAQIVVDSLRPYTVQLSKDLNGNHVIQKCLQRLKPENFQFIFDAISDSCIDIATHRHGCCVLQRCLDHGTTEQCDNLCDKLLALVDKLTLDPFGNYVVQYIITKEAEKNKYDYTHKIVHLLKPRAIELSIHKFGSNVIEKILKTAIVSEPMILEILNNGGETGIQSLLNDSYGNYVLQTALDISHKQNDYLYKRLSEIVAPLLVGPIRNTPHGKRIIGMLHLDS
Assay: Mg; RNA-MaP; 20 mM Na-HEPES pH 7.4, 30 mM KOAc, 0.75 mM MgCl2, 0.1% Tween-20, 5% glycerol, 0.1 mg/mL BSA, 2 mM DTT; 25 C; 0.0125-409.6 nM protein
Settings: tags: N-His6-TEV cleaved; C-SNAP kept, Cy3B-labelled; label: tethered on chip by stalled RNA polymerase
FYI, pKd means -log10 of a concentration in mol per litre.

Binder: Id_iii_S2_P4E.7_K4.3_C4.3_H4.3_A4.1_F4.1_T4.2_[G10T] (ssRNA) RNA: UUUGAUUAAUAUGAUAUCGUUCUUUCUUCUACACUAUUAUUUUCUUUCUCGAUAUCAUAUUAAUCUUU
pKd: 6.31

*Q* // lookup pKd for UCUCUUUGUAUUAUAGUCUCUU (ssRNA) [Ic_S1_P5E.1_K5.1_C5.1_H5.1_A5.1_F5.1_[T9A]_[A10G]_T5.1]
*A* 9.03

*Q* Please do the same for UCUCUUUGUACCCUUUUAUUAUCUCUU (ssRNA) [Ie_S1_P5E.1_K5.1_C5.1_H5.1_[+4CCCTT]_A5.1_F5.1_T5.1] as well.
*A* 7.37

*Q* Please do the same for Ic_S2_P4E.1_K4.1_C4.1_H4.1_A4.1_[T5C]_[A6T]_F4.1_[T8C]_[A9T]_T4.1 (ssRNA) RNA: UUUGAUUAAUAUGAUAUCGUUCUUUCUUGUACUUCUUUCUUUCUCGAUAUCAUAUUAAUCUUU as well.
*A* 7.61

*Q* Please do the same for UCUCUUUGUAUUAGCUCUCUU (ssRNA) [Ic_S1_P4E.1_K4.1_C4.1_H4.1_A4.1_[A6T]_[T7A]_F4.1_[T8G]_[A9C]_T4.1] as well.
*A* 6.28

*Q* Please do the same for UCUCUUUGUAUAACCUCUCUU (ssRNA) [Ic_S1_P4E.1_K4.1_C4.1_H4.1_A4.1_[T7A]_F4.1_[T8C]_[A9C]_T4.1] as well.
*A* 7.20
